# tgt: human PCSK9 / human LDLR EGFa domain interaction (Homo sapiens (Human))
# Sequence (Q8NBP7 153-692): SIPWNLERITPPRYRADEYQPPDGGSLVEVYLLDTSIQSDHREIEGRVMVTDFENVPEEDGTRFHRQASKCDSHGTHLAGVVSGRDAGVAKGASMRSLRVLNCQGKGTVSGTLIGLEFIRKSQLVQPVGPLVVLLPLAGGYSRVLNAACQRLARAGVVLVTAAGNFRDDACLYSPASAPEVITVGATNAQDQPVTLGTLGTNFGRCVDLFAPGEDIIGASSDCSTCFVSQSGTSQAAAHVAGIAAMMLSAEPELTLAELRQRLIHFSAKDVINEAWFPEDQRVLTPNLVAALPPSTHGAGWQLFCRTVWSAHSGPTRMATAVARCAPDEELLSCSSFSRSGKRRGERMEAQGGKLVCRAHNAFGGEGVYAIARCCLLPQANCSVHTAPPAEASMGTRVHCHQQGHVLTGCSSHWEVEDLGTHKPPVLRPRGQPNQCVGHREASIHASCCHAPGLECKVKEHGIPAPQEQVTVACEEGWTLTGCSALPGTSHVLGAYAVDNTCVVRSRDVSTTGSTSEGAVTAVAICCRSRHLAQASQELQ
# Sequence (Q8NBP7 31-152 partner): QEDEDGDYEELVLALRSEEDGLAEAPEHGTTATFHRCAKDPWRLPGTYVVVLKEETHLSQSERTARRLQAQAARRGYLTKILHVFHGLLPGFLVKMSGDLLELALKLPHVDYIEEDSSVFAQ
# assaySummary: TR-FRET assay of inhibition of the PCSK9-LDLR protein-protein interaction
# Type: binding
# testConditions: TR-FRET, 20 nM human PCSK9, 20 nM human LDLR EGFa domain, 2 hours room temperature; read-out: IC50
Starred links: 1 amine or outer side, 2 acyl side, 3 side chain; linkers in the order of their positions; H or OH if unused. Positions of bridges follow the written chain, without caps; N, C: chain ends. Non-standard residues stand in square brackets, D forms with d. Residues, ends and D or L forms follow the SMILES beside them. Trp(5-F) = N[C@@H](Cc1c[nH]c2ccc(F)cc12)C(=O)O; Pro(3R-Ph) = O=C(O)[C@H]1NCC[C@@H]1c1ccccc1; Leu(3R-OH) = CC(C)[C@@H](O)[C@H](N)C(=O)O; mXylylene = c1cc(C[*:1])cc(C[*:2])c1; αMeP = C[C@@]1(C(=O)O)CCCN1; Mpa = O=C(O)CCS
attributeMeasured: IC50

Each molecule below has a reported value. Please supply its IC50.
1. NCCCC[C@@H]1NC(=O)CCSCc2cccc(c2)CSC[C@@H](C(N)=O)NC(=O)[C@@H]2CCCN2C(=O)[C@@H]2[C@@H](c3ccccc3)CCN2C(=O)[C@H](Cc2c[nH]cn2)NC(=O)[C@H](CC(=O)O)NC(=O)[C@H](Cc2c[nH]c3ccc(F)cc23)NC(=O)[C@H](Cc2c[nH]c3ccc(F)cc23)NC(=O)CNC1=O [Compound 326] ([Mpa]KG[Trp(5-F)][Trp(5-F)]DH[Pro(3R-Ph)]PC-NH2; linker 1-10 via mXylylene)
2. CC(C)[C@@H](O)[C@@H]1NC(=O)[C@@H]2CCCN2C(=O)[C@H](Cc2c[nH]c3ccc(F)cc23)NC(=O)[C@H](Cc2c[nH]c3ccc(F)cc23)NC(=O)CNC(=O)[C@H](CCCCN)NC(=O)CCSCc2cccc(c2)CSC[C@@H](C(N)=O)NC(=O)[C@]2(C)CCCN2C(=O)[C@H](Cc2ccc(O)cc2)NC1=O [Compound 049] ([Mpa]KG[Trp(5-F)][Trp(5-F)]P[Leu(3R-OH)]Y[αMeP]C-NH2; linker 1-10 via mXylylene)

1: 1000 to 12100 nM; 2: 100 to 1000 nM

---

# tgt: PCSK9 (Homo sapiens (Human))
# assaySummary: PCSK9 Alexa FRET Plus assay (displacement of AlexaFluor647 tagged cyclic peptide Reagent B)
# Format: binding
# testConditions: Alexa FRET Plus, 0.5 nM PCSK9, 960 nM AF cyclic peptide Reagent B; read-out: IC50
pIC50: −log10 of the molar value. Starred links: 1 amine or outer side, 2 acyl side, 3 side chain; linkers in the order of their positions; H or OH if unused. Positions of bridges follow the written chain, without caps; N, C: chain ends. Non-standard residues stand in square brackets, D forms with d. Residues, ends and D or L forms follow the SMILES beside them. Trp(5-F) = N[C@@H](Cc1c[nH]c2ccc(F)cc12)C(=O)O; mXylylene(5-F) = Fc1cc(C[*:1])cc(C[*:2])c1; Pro(cis-4-F) = O=C(O)[C@@H]1C[C@H](F)CN1; X46 = O=C(C[*:2])NCCCCC(=O)[*:1]; αMeP = C[C@@]1(C(=O)O)CCCN1; Mpa = O=C(O)CCS
attributeMeasured: pIC50

Some entries whose results are on file:
CCCc1cccc(C[C@@H]2NC(=O)[C@@H](C)NC(=O)[C@H](C)NC(=O)CCSCc3cccc(c3)CSCCNC(=O)[C@]3(C)CCCN3C(=O)[C@H](Cc3ccc(OC)cc3)NC[C@H]([C@@H](C)OC)NC(=O)[C@@H]3[C@@H](O)CCN3C(=O)[C@H](Cc3c[nH]c4ccc(F)cc34)NC2=O)c1	5.30 to 6.30
COc1ccc(C[C@@H]2NC(=O)[C@H](C(C)C)NC(=O)[C@@H]3CCCN3C(=O)[C@H](Cc3c[nH]c4ccc(F)cc34)NC(=O)[C@H](Cc3c[nH]c4ccc(F)cc34)NC(=O)[C@@H](C)NC(=O)[C@H](CCCCN)NC(=O)CCSCc3cc(F)cc(c3)CSC[C@@H](C(N)=O)NC(=O)[C@]3(C)CCCN3C2=O)cc1 [Compound 010] ([Mpa]K[dA][Trp(5-F)][Trp(5-F)]PVY(Me)[αMeP]C-NH2; linker 1-10 via mXylylene(5-F))	5.30 to 6.30

We now examine a further molecule.
Which pIC50 is listed for COc1ccc(C[C@@H]2NC(=O)[C@H]([C@@H](C)O)NC(=O)[C@@H]3C[C@H](F)CN3C(=O)[C@H](Cc3c[nH]c4ccc(F)cc34)NC(=O)[C@H](Cc3c[nH]c4ccc(F)cc34)NC(=O)[C@@H](C)NC(=O)[C@H](CCCCN)NC(=O)CCCCNC(=O)COc3ccc(cc3)C[C@@H](C(N)=O)NC(=O)[C@]3(C)CCCN3C2=O)cc1 [Compound 117] (K[dA][Trp(5-F)][Trp(5-F)][Pro(cis-4-F)]TY(Me)[αMeP]Y-NH2; linker N-9 via X46) ?
5.30 to 6.30
